The values you see were collected from patent US20230055711A1.

Would you kindly list pKd for each of these binders?
- testedSystem: recombinant human BCMA-his protein (Acro biosystems, Cat #BCA-H522Y) (human) (UniProt Q02223)
- Sequence (Q02223 1-54, stated change not applied): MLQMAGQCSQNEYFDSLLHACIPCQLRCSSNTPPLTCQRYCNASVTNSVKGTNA
- runDescription: BLI Octet RED96, antibody on AHC sensor, BCMA-his in solution
pKd here: minus log base 10 of the concentration, concentration in moles per litre.

According to the records, this binder huB1H2-V2 (antibody, human IgG1, kappa, V domains shown) VH: QVQLVQSGAEVKKPGASVKVSCKASGYTLTNYVMHWVRQAPGQGLEWIGFIIPFNDGTKYNEHFKGRVTITRDTSISTAYMQLSSLRSEDTAVYYCARYDFEGYFDVWGQGTLVTVSS VL: DIQMTQSPSSLSASVGDRVTITCSASQDITNFLNWYQQKPGKTVKLLIYSTSRLHSGVPSRFSGSGSGTDYTFTISSLQPEDIATYYCQQYSNLPWTFGQGTKVEIKR displays pKd of 8.89

huB1H2-V22 (antibody, human IgG1, kappa, V domains shown) VH: QVQLVQSGAEVKKPGASVKVSCKASGYTLTNYVMHWVRQAPGQGLEWIGFIIPFNDGTKYNEHFKGRVTITSDTSISTAYMQLSSLRSEDTAVYYCARYDFEGYFDVWGQGTLVTVSS VL: DIQMTQSPSSLSASVGDRVTITCSASQDITNFLNWYQQKPGKAPKLLIYSTSRLHSGVPSRFSGSGSGTDYTLTISSLQPEDIATYYCQQYSNLPWTFGQGTKVEIKR has a reported pKd of 8.42

Given item huB1H2-V5 (antibody, human IgG1, kappa, V domains shown) VH: QVQLVQSGAEVKKPGASVKVSCKASGYTLTNYVMHWVRQAPGQGLEWIGFIIPFNDGTKYNEHFKGRVTITRDKSISTAYMQLSSLRSEDTAVYYCARYDFEGYFDVWGQGTLVTVSS VL: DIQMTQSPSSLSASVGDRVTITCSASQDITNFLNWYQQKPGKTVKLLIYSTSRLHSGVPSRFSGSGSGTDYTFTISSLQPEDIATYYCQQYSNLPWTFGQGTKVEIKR , the value recorded as its pKd is 9.04
